Target: CD47 ECD-C15G mutant, His-tagged (human, UniProt Q08722 19-141, N-terminus Q1 cyclized as pyroglutamate (C47B161 complex); glycans at 5, 16, 32, 55, 93 except in the endoH-deglycosylated C47B161 complex)
Experiment: Fab:CD47 complex isolated by chromatography and crystallized
PROPERTY_MEASURED: binding result

C47B222 Fab (Fab, V domains shown, His-tagged Fab from HEK293) VH: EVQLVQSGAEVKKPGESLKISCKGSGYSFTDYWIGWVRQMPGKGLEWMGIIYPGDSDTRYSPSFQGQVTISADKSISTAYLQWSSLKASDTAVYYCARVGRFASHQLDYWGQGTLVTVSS VL: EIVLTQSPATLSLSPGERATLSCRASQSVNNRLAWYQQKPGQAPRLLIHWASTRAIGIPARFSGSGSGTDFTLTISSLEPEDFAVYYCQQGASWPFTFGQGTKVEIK :: binds
C47B227 Fab (Fab, V domains shown, His-tagged Fab from HEK293) VH: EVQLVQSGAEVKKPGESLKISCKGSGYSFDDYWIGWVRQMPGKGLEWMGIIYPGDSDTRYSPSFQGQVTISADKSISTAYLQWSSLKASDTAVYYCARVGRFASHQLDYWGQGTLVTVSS VL: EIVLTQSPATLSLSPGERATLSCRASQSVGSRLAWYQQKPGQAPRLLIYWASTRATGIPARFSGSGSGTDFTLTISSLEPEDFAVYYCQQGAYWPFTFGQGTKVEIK :: binds
B6H12.2 Fab (Fab, V domains shown, Fab used for co-crystallization) VH: EVKLVESGGDLVKPGGSLKLSCAASGFTFSGYGMSWVRQTPDKRLEWVATITSGGTYTYYPDSVKGRFTISRDNAKNTLYLQIDSLKSEDTAIYFCARSLAGNAMDYWGQGTSVTVSS VL: DIVMTQSPATLSVTPGDRVSLSCRASQTISDYLHWYQQKSHESPRLLIKFASQSISGIPSRFSGSGSGSDFTLSINSVEPEDVGVYYCQNGHGFPRTFGGGTKLEIK :: binds
C47B161 Fab (Fab, V domains shown) VH: QVQLVQSGAEVKKPGASVKVSCKASGYTFTDYNMHWVRQAPGQRLEWMGDIYPYNGGTGYNQKFKGRVTITRDTSASTAYMELSSLRSEDTAVYYCARGGWHAMDSWGQGTLVTVSS VL: DIVMTQSPLSLPVTPGEPASISCRSRQSIVHTNRYTYLAWYLQKPGQSPQLLIYKVSNRFSGVPDRFSGSGSGTDFTLKISRVEAEDVGVYYCFQGSHVPYTFGGGTKLEIK :: binds

Prompt: If you can, please state the reported binding result value of C47B167 Fab (Fab, V domains shown, His-tagged Fab from HEK293) VH: EVQLVQSGAEVKKPGESLKISCKGSGYTFTSYWMQWVRQMPGKGLEWMGEINPSNGRTDYNEKFRGQVTISADKSISTAYLQWSSLKASDTAMYYCARQGGSGYGNSYGFFDVWGQGTTVTVSS VL: EIVLTQSPATLSLSPGERATLSCRASSSVSYMHWYQQKPGQAPRLLIYDTSRLASGIPARFSGSGSGTDFTLTISSLEPEDFAVYYCQQWRSNPYTFGGGTKVEIK .
Response: binds
